Cited source for all entries: paper PMC4161152

Below: a set of entries, each annotated with reported IC50.
- System tested: MCT1 (Mus musculus, UniProt P53986)
- Sequence (P53986 whole entry): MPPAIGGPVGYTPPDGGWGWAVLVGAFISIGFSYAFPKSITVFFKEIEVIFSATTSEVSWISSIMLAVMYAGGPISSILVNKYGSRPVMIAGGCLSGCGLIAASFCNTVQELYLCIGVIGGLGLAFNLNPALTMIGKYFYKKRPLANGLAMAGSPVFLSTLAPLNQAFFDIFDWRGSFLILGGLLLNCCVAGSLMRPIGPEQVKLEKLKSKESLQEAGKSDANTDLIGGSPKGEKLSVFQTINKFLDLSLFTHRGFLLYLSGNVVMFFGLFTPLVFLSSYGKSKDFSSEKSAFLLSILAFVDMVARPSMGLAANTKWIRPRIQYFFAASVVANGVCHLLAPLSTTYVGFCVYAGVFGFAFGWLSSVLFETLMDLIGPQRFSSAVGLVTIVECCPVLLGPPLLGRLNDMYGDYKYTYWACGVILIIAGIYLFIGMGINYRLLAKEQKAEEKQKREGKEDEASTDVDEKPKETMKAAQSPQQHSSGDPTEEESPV
- Experimental protocol: MCF7_MCT1 14C-lactate transport assay
- Type: cell-based
- Test context: IC50 (nM) lactate transport, labeled (14C) lactate transport, MCF7 breast cancer cells engineered to overexpress MCT1, 10 min on ice

Sample records with IC50:
1) CC(C)Cn1c(=O)n(C)c(=O)c2nc(SCCCO)c(Cc3cccc4ccccc34)nc21 [Compound 15b] ... 858 nM
2) CC(C)Cn1c(=O)n(C)c(=O)c2nc(CCCCO)c(Cc3cccc4ccccc34)nc21 [Compound 23a] ... > 2000 nM

# IC50 of CC(C)Cn1c(=O)n(C)c(=O)c2nc(CCCCCO)c(Cc3cccc4ccccc34)nc21 [Compound 23b] = 192 nM

Entry CC(C)Cn1c(=O)n(C)c(=O)c2c1nc(Cc1cccc3ccccc13)c(=O)n2CCCCO [Compound 14b] , IC50 reported as 548 nM

IC50 measured on CC(C)Cn1c(=O)n(C)c(=O)c2nc(/C=C\CCCO)c(Cc3cccc4ccccc34)nc21 [Compound 27] = 116 nM
